# procedure-details: viability profiling in RPMI8226 myeloma cells – cell-based, resazurin fluorescence, basal, 24 h, PK04 Diversity Set, profiling panel (AID 1180);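 also: RPMI8826 multiple myeloma cell line at 5000 cells per well; test concentration not given here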
# test-parameters: higher = more signal
Field: class. Source value: z-score. Ranges: bucket 1: < -0.7; bucket 2: ≥ -0.7 and < -0.2; bucket 3: ≥ -0.2

[
  {
    "molecule": "Cc1cccc(/C=C/C=O)c1",
    "class-name": "bucket 3"
  },
  {
    "molecule": "O=[N+]([O-])c1ccc(C[n+]2ccc(CCCO)cc2)o1",
    "class-name": "bucket 2"
  },
  {
    "molecule": "O=C1OCCC/C=C\\[C@H]2OC34C=CCN(Cn5nnc6ccccc65)C(=O)[C@H]3N(CCCO)C(=O)[C@@H]4C12 (some centres undefined)",
    "class-name": "bucket 3"
  },
  {
    "molecule": "COc1c(C)cc(-c2cc3c(c(-c4ccccc4)n2)[Si](C(C)C)(C(C)C)O[C@H]3c2ccccc2)cc1C",
    "class-name": "bucket 2"
  }
]

Please report the category associated with CCOC(=O)C[C@H]1[C@H](OC(=O)c2ccc(C(=O)c3ccccc3)cc2)[C@@H](NC(=O)c2ccc3ccccc3n2)c2cc(OCCCO)ccc2N1C(=O)c1ccc2ccccc2n1 , nothing else.
bucket 3

###

# procedure-details: JC-1 mitochondrial potential readout, lung cancer cells – cell-based, A549, JC-1 fluorescence, basal, 24 h, 100 nL, profiling panel (AID 1138);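 also: A549 lung adenocarcinoma cells under basal conditions with no added stimulus; test concentration not given here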
# test-parameters: higher = more signal
Bucketed by reported z-score, buckets being LOW: < -0.5; MID: ≥ -0.5 and < 0.008; HIGH: ≥ 0.008

For orientation, consider the following solved cases.
[
  {
    "compound": "COC(=O)C(CC#Cc1ccc2c(c1)[C@]1(C(=O)N2)[C@H](C(=O)N2CCCCCCC2)[C@H]2C(=O)O[C@H](c3ccccc3)[C@H](c3ccccc3)N2[C@@H]1c1ccccc1OCCO)C(=O)OC",
    "class-name": "LOW"
  },
  {
    "compound": "C=C(C(=O)CC[C@@H](OC(=O)c1cccnc1)c1ccc(OCCO)cc1)C(C)C",
    "class-name": "MID"
  },
  {
    "compound": "COc1ccc([Si](C)(C)[C@@H]2[C@@H](CCO)O[C@]3(C(=O)N(Cc4cccc(N5CCCCC5=O)c4)c4ccccc43)[C@H]2C)cc1",
    "class-name": "MID"
  },
  {
    "compound": "NC(=O)NCC#Cc1ccc2c(c1)[C@]1(C(=O)N2)[C@H](c2ccccc2OCCO)N2[C@H](c3ccccc3)[C@H](c3ccccc3)OC(=O)[C@H]2[C@@H]1C(=O)N1CCCCCCC1",
    "class-name": "LOW"
  },
  {
    "compound": "C=CCC(OC(C)=O)[C@@H]1[C@@H](N(Cc2cc3ccccc3o2)C(=O)c2cccc3ccccc23)c2cc(OCCCO)ccc2N1C(=O)Cc1ccc(OC)cc1 (stereo not given in full)",
    "class-name": "LOW"
  }
]

# evaluate next
Sort [N-]=[N+]=NCc1ccccc1C[C@]1(C(=O)NCC(O)CO)COC(c2ccc(OCCCO)cc2)=N1 (stereo not given in full) into one of the categories.
HIGH

###

Would you mind telling me the reported composite z-score of each entry?
# procedure-details: binders of probe aHhip on microarray, primary screen, stem cell growth factor project, biochemical, small-molecule microarray, fluorescence 635/667 (AID 1087);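 also: score merges spot fluorescence at 667nm with spot signal to noise ratio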
# test-parameters: higher = more signal
Give bare numbers.

Answered examples (3):
[
  {
    "compound": "C=CCOC(=O)[C@H]1[C@@H]2C(=O)O[C@@H](c3ccccc3)[C@@H](c3ccccc3)N2[C@@H](c2ccc(OCCOC(=O)[C@@H]3C[C@@H]4C(=O)NCC(=O)N4[C@@H]3c3ccc(O)cc3)cc2)[C@]12C(=O)Nc1ccc(I)cc12",
    "composite z-score": 0.107
  },
  {
    "compound": "[N-]=[N+]=NCc1ccccc1[C@H]1OC(c2ccc(OCCCO)cc2)=N[C@@]1(Cc1ccccc1)C(=O)O",
    "composite z-score": -0.0994
  },
  {
    "compound": "C[N+](C)(C)CCCC[C@@H]1NC(=O)[C@H]2C[C@@H](C(=O)O)[C@@H](c3cccc(OCCO)c3)N2C1=O",
    "composite z-score": 1.88
  }
]

Hey, can you go through the list below and give me composite z-score for every item?
1. CC(C)[C@H]1COC(=O)N1C(=O)[C@H]1[C@@H](c2ccccc2)N(c2ccccc2)O[C@@H]1C
2. CN(C)CCCCCCNC(=O)[C@@H]1C[C@@H]2C(=O)N[C@@H](Cc3ccccc3)C(=O)N2[C@@H]1c1cccc(OCCO)c1
3. CC(=O)n1cc(C(O)C2C=CC3C(=O)N(c4ccccc4)C(=O)C3N2Nc2ccc(C#N)cc2)c2ccccc21 (configuration not stated)
4. CN1C(=O)C2C=CC(C(O)C3=C[C@H]4C[C@@H](C3)C4(C)C)N(Nc3ccc([N+](=O)[O-])cc3[N+](=O)[O-])C2C1=O (some centres not stated)

1: -0.367; 2: 0.241; 3: 0.0373; 4: 0.0826

###

# procedure-details: S6 kinase pathway phospho-S6 level changes – cell-based, A549, cytoblot, luminescence, serum-stimulated, primary screen (AID 1158);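 also: serum-stimulated A549 lung adenocarcinoma cells; signal is phosphorylated S6 detected by cytoblot immunostaining with HRP secondary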
# test-parameters: 5 h, higher = more signal
recorded-endpoint: z-score
One number for each entry.

Dear colleague, could you please provide z-score for the compounds listed below?
1. O=C1c2ccccc2[C@@]2(Cc3ccccc3N(Cc3ccccc3)C2=O)[C@H](c2ccc(CO)cc2)N1Cc1ccccc1C(F)(F)F
2. CO[C@H]1O[C@H](CO)[C@@H](OC(=O)Nc2ccc(C(F)(F)F)cc2)[C@H](OC(=O)Nc2ccccc2)[C@@H]1OC(=O)Nc1ccccc1
3. COC(=O)c1nc2oc1CC[C@@H](CO)NC(=O)N(C)Cc1cn(nn1)C[C@H](Cc1ccccc1)NC2=O
4. CC(C)N1C(=O)c2ccccc2[C@](C)(C(=O)NC2CC2)[C@@H]1c1ccc(CO)cc1

[-0.106, -0.143, 0.225, -0.0085]

###

Give z-score for every item shown.
# procedure-details: S. pombe growth modifiers, basal conditions – strain 972, OD600, 24 h, no modulator, primary screen (AID 1090);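 also: basal condition with compound alone and no growth modifier present; test concentration not given here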
# test-parameters: S. pombe 972 growth, higher = more signal, called active from +8 up or from −8 down
Numbers only.

Answered cases to consult:
[
  {
    "compound": "O=C1C2C=CC(C(O)c3ccccn3)N(Nc3ccccc3F)C2C(=O)N1c1ccccc1 (stereo not given)",
    "recorded-endpoint": "z-score",
    "reported-value": 0.0161
  },
  {
    "compound": "O=c1cccc(-c2ccc3ccccc3c2)o1",
    "recorded-endpoint": "z-score",
    "reported-value": -15
  },
  {
    "compound": "CC(c1ccccc1)C(O)C1C=CC2C(=O)N(Cc3ccccc3)C(=O)C2N1n1cnnc1 (stereo not given)",
    "recorded-endpoint": "z-score",
    "reported-value": -0.0262
  },
  {
    "compound": "COC(=O)[C@@]1(Cc2ccccc2)[C@H]2c3cc(C(=O)N(C)C)n(Cc4ccccc4)c3C[C@H]2CN1C(=O)c1ccccc1",
    "recorded-endpoint": "z-score",
    "reported-value": 1.74
  },
  {
    "compound": "CC(C)[C@H]1COC(=O)N1C(=O)[C@H]1[C@@H](c2ccccc2)N(c2ccccc2)O[C@@H]1C",
    "recorded-endpoint": "z-score",
    "reported-value": -2.87
  }
]

// for each compound in input: emit z-score
1. O[C@@H](Cc1ccccc1)[C@@H](/C=C/c1ccccc1)NCc1ccccc1Br
2. COc1ccccc1CN1C(=O)c2ccccc2[C@](Cc2ccccc2I)(C(=O)NC2CC2)[C@@H]1c1ccc(CO)cc1
3. COc1ccc([Si](C)(C)[C@@H]2[C@@H](CCO)O[C@]3(C(=O)N(Cc4ccc(N5C(=O)c6cccc7cccc5c67)cc4)c4ccccc43)[C@H]2C)cc1
4. COCCOC(=O)N1C(=O)[C@@]2(c3cc(C#CC4=CCCCC4)ccc31)[C@H](c1ccc(OCCO)cc1)N1[C@H](c3ccccc3)[C@H](c3ccccc3)OC(=O)[C@H]1[C@@H]2C(=O)Nc1nc2ccccc2s1

[-11.4, 0.642, 1.54, 1.04]

###

# procedure-details: optical density change of DRC41 E. coli – strain DRC41, OD650, 24 h, E. coli filamentation project, primary screen (AID 1093);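 also: MC1000 strain lacking acrAB efflux and sulA so SOS filamentation is blocked; test concentration not given here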
# test-parameters: E. coli DRC41 growth, higher = more signal, called active from +8 up or from −8 down
Please note: YES applies when z-score is 1 or greater, and NO applies otherwise.

[
  {
    "molecule": "C=C(C(=O)CC[C@H](OC(=O)c1cccnc1)c1ccccc1OCCO)C(C)C",
    "class-name": "NO"
  }
]

Is reported z-score greater than or equal to 1 here: C=CCN1Cc2ccccc2C[C@]2(N=C(c3ccc(OCCCO)cc3)O[C@@H]2c2ccccc2)C1=O
YES

Textbook exercise: given the entry OCCCc1cc[n+](Cc2cccc(OC(F)(F)F)c2)cc1 , state whether its z-score is greater than or equal to 1.
NO

Decide: z-score of C=C(C)[C@@H]1CC=C(C(O)C2C=CC3C(=O)N(Cc4ccccc4)C(=O)C3N2n2cnnc2)CC1 (some centres undefined) >= 1?
NO

Threshold query (z-score >= 1) on Cc1ccc(S[C@]2(C(=O)NCCN3CCOCC3)CC(=O)N(C3CCCCC3)[C@@H]2c2ccc(CO)cc2)cc1
NO
